Assay: Intrinsic clearance in Wistar Han rat hepatocytes assessed per 10^6 cells
Assay type: ADME, cell-based, Hepatocyte
Details: read-out: CLH
Quantity: hepatocyte CLint (µL/min/1e6 cells)
Unit µL/min/1e6 cells implied. Number only.

The cases that follow already have their hepatocyte CLint on record.
Compound | hepatocyte CLint, µL/min/1e6 cells
C[C@H](NC(=O)C(C)(F)F)[C@H](Oc1ccc2c(cnn2-c2ccc(F)cc2)c1)c1ccc2c(c1)OCCO2 | 22
C[C@H](NC(=O)C(C)(F)F)[C@H](Oc1ccc2c(cnn2-c2cccc(C(=O)NCc3cccnc3)c2)c1)c1ccc2c(c1)OCOC2 | 25
C[C@H](NC(=O)C(C)(F)F)[C@H](Oc1ccc2c(cnn2-c2cccc(C(=O)N[C@@H]3CCS(=O)(=O)C3)c2)c1)c1ccc2c(c1)OCCO2 | 31
CCC(=O)O[C@]1(C(=O)SCF)[C@H](C)C[C@H]2[C@@H]3C[C@H](F)C4=CC(=O)C=C[C@]4(C)[C@@]3(F)[C@@H](O)C[C@@]21C [FLUTICASONE PROPIONATE] | 28
COc1cccc([C@@H](Oc2ccc3c(cnn3-c3ccc(F)cc3)c2)[C@H](C)NC(=O)C(F)(F)F)c1 | 13
C[C@H](NC(=O)C(C)(F)F)[C@H](Oc1ccc2c(cnn2-c2cccc(C(=O)NCc3cccnc3)c2)c1)c1ccc2c(c1)OCCO2 | 25

Continue with the next compound.
I'd like to know its hepatocyte CLint. The compound in question is C[C@H](NC(=O)C(C)(F)F)[C@H](Oc1ccc2c(cnn2-c2cccc(C(=O)N[C@@H]3CCOC3)c2)c1)c1ccc2c(c1)OCCO2
34

* * *

Listed here: items and their measured hepatocyte CLint.
Test: Intrinsic clearance in human hepatocytes assessed per million cells
Type: ADME, cell-based, Hepatocyte
Settings: read-out: CLH
Form entry: value (µL/min/1e6 cells) — number only.

Compound | Numeric result
C[C@H](NC(=O)C(C)(F)F)[C@H](Oc1ccc2c(cnn2-c2cccc(C(=O)N[C@@H]3CCS(=O)(=O)C3)c2)c1)c1ccc2c(c1)OCCO2 | 22
C[C@H](NC(=O)C(C)(F)F)[C@H](Oc1ccc2c(cnn2-c2ccc(F)cc2)c1)c1ccc2c(c1)OCOC2 | 15
CCC(=O)O[C@]1(C(=O)SCF)[C@H](C)C[C@H]2[C@@H]3C[C@H](F)C4=CC(=O)C=C[C@]4(C)[C@@]3(F)[C@@H](O)C[C@@]21C [FLUTICASONE PROPIONATE] | 33
C[C@H](NC(=O)C(C)(F)F)[C@H](Oc1ccc2c(cnn2-c2cccc(C(=O)N[C@H]3CCOC3)c2)c1)c1ccc2c(c1)OCOC2 | 26
C[C@H](NC(=O)C(C)(F)F)[C@H](Oc1ccc2c(cnn2-c2ccc(F)cc2)c1)c1ccc2c(c1)OCC2 | 14

Now consider a different compound.
# hepatocyte CLint lookup, item C[C@H](NC(=O)C(C)(F)F)[C@H](Oc1ccc2c(cnn2-c2ccc(F)cc2)c1)c1ccc2c(c1)COCO2
20

* * *

Catalogue of log10 of half-life values
Test: Apparent terminal half life in Wistar Han rat lung at 0.1 umol/kg, administered as dry powder inhalation by LC-MS/MS analysis
Assay type: ADME
Settings: inhaled or intranasal, read-out: betat1/2(app) (converted)
On a log10 scale: recorded half-life, unit min.

Compound | Quantity | Numeric result
C[C@H](NC(=O)C(C)(F)F)[C@H](Oc1ccc2c(cnn2-c2cccc(C(=O)NCc3cccnc3)c2)c1)c1ccc2c(c1)OCCO2 | log10 of half-life | 2.47
C[C@H](NC(=O)C(C)(F)F)[C@H](Oc1ccc2c(cnn2-c2cccc(C(=O)N[C@@H]3CCOC3)c2)c1)c1ccc2c(c1)OCCO2 [VELSECORAT] | log10 of half-life | 3.01
C[C@H](NC(=O)C(C)(F)F)[C@H](Oc1ccc2c(cnn2-c2cccc(C(=O)NCc3cccnc3)c2)c1)c1ccc2c(c1)OCOC2 | log10 of half-life | 2.73
C[C@H](NC(=O)C(C)(F)F)[C@H](Oc1ccc2c(cnn2-c2cccc(C(=O)N[C@@H]3CCS(=O)(=O)C3)c2)c1)c1ccc2c(c1)OCCO2 | log10 of half-life | 4.03
COc1cccc([C@@H](Oc2ccc3c(cnn3-c3ccc(F)cc3)c2)[C@H](C)NC(=O)C(F)(F)F)c1 [AZD-5423] | log10 of half-life | 2.65

Query compound follows.
Name the reported log10 of half-life value associated with the compound CCC(=O)O[C@]1(C(=O)SCF)[C@H](C)C[C@H]2[C@@H]3C[C@H](F)C4=CC(=O)C=C[C@]4(C)[C@@]3(F)[C@@H](O)C[C@@]21C [FLUTICASONE PROPIONATE]
2.43

* * *

Test: Thermodynamic solubility of the compound in human intestinal fluid
Assay type: physicochemical
Conditions: read-out: Therm_solubility
Short version: solubility thermodynamic at least 0.6 µM is label 1, less is label 0.

Illustrative cases are given below, each with its answer.
Compound | Discrete label
C[C@H](NC(=O)C(C)(F)F)[C@H](Oc1ccc2c(cnn2-c2cccc(C(=O)N[C@@H]3CCS(=O)(=O)C3)c2)c1)c1ccc2c(c1)OCCO2 | label 0
CCC(=O)O[C@]1(C(=O)SCF)[C@H](C)C[C@H]2[C@@H]3C[C@H](F)C4=CC(=O)C=C[C@]4(C)[C@@]3(F)[C@@H](O)C[C@@]21C [FLUTICASONE PROPIONATE] | label 1
C[C@H](NC(=O)C(C)(F)F)[C@H](Oc1ccc2c(cnn2-c2cccc(C(=O)NCc3cccnc3)c2)c1)c1ccc2c(c1)OCOC2 | label 1
C[C@H](NC(=O)C(C)(F)F)[C@H](Oc1ccc2c(cnn2-c2cccc(C(=O)NCc3cccnc3)c2)c1)c1ccc2c(c1)OCCO2 | label 1

Please find the next compound below.
Dear colleague, could you confirm whether COc1cccc([C@@H](Oc2ccc3c(cnn3-c3ccc(F)cc3)c2)[C@H](C)NC(=O)C(F)(F)F)c1 has solubility thermodynamic at or above 0.6 µM?
label 1

* * *

A collection of compounds and their measured half-life
Assay: Terminal half life in Wistar Han rat 1 umol/kg, iv administered as bolus dose by LC-MS/MS analysis
Assay type: ADME, organism-based
Details: in vivo, read-out: beta t1/2 (converted)
Form entry: value (min) — number only.

Known half-life results, listed for orientation:
Compound | half-life / min
C[C@H](NC(=O)C(C)(F)F)[C@H](Oc1ccc2c(cnn2-c2cccc(C(=O)N[C@@H]3CCOC3)c2)c1)c1ccc2c(c1)OCCO2 [VELSECORAT] | 6
C[C@H](NC(=O)C(C)(F)F)[C@H](Oc1ccc2c(cnn2-c2cccc(C(=O)N[C@@H]3CCS(=O)(=O)C3)c2)c1)c1ccc2c(c1)OCCO2 | 18
COc1cccc([C@@H](Oc2ccc3c(cnn3-c3ccc(F)cc3)c2)[C@H](C)NC(=O)C(F)(F)F)c1 [AZD-5423] | 282
CCC(=O)O[C@]1(C(=O)SCF)[C@H](C)C[C@H]2[C@@H]3C[C@H](F)C4=CC(=O)C=C[C@]4(C)[C@@]3(F)[C@@H](O)C[C@@]21C [FLUTICASONE PROPIONATE] | 198
C[C@H](NC(=O)C(C)(F)F)[C@H](Oc1ccc2c(cnn2-c2ccc(F)cc2)c1)c1ccc2c(c1)OCCO2 | 444
C[C@H](NC(=O)C(C)(F)F)[C@H](Oc1ccc2c(cnn2-c2cccc(C(=O)NCc3cccnc3)c2)c1)c1ccc2c(c1)OCCO2 | 12

Let's switch to this compound now.
Which value of half-life has been reported for C[C@H](NC(=O)C(C)(F)F)[C@H](Oc1ccc2c(cnn2-c2cccc(C(=O)NCc3cccnc3)c2)c1)c1ccc2c(c1)OCOC2 in the records?
6

* * *

Assay: Cmax in Wistar Han rat plasma at 0.1 umol/kg, administered as dry powder inhalation by LC-MS/MS analysis
Format: ADME
Parameters: dose 0.1 umol/kg, route respiratory (INHALATION)
Settings: inhaled or intranasal
Quantity: Cmax

Molecule | Cmax
C[C@H](NC(=O)C(C)(F)F)[C@H](Oc1ccc2c(cnn2-c2cccc(C(=O)N[C@@H]3CCOC3)c2)c1)c1ccc2c(c1)OCCO2 [VELSECORAT] | 7.4 nM
C[C@H](NC(=O)C(C)(F)F)[C@H](Oc1ccc2c(cnn2-c2cccc(C(=O)NCc3cccnc3)c2)c1)c1ccc2c(c1)OCCO2 | 21 nM

Name the recorded Cmax for C[C@H](NC(=O)C(C)(F)F)[C@H](Oc1ccc2c(cnn2-c2cccc(C(=O)N[C@@H]3CCS(=O)(=O)C3)c2)c1)c1ccc2c(c1)OCCO2 .
4.9 nM

* * *

As shown below, each of these compounds has a reported solubility value.
Assay: Solubility of the compound in phosphate buffer at pH 7.4 using liquid sample at 20 degreeC
Assay type: physicochemical

Please look up its solubility: C[C@H](NC(=O)C(C)(F)F)[C@H](Oc1ccc2c(cnn2-c2cccc(C(=O)N3CCC[C@@H]3C(N)=O)c2)c1)c1ccc2c(c1)OCCO2
47 µM

Which value of solubility has been reported for C[C@H](NC(=O)C(C)(F)F)[C@H](Oc1ccc2c(cnn2-c2cccc(C(=O)N[C@@H]3CCOC3)c2)c1)c1ccc2c(c1)OCCO2 [VELSECORAT] in the records?
< 0.1 µM

Recorded solubility of C[C@H](NC(=O)C(C)(F)F)[C@H](Oc1ccc2c(cnn2-c2cccc(C(=O)NCc3cccnc3)c2)c1)c1ccc2c(c1)OCCO2 , please.
< 0.1 µM
